src = the supplement of paper PMC10201428

Property: relative integration efficiency (log2); scope: individual variants
B1: library; a variant is named by its letters at N, in order (parent)
chain: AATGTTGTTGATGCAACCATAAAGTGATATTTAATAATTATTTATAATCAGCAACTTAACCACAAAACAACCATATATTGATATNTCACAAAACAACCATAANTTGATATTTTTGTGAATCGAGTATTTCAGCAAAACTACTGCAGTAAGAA

# Variants of: B1
# Protocol summary: relative integration efficiency (T-LR orientation) vs wild-type transposon end (log2 (normalized fold change)); transposon end mutated: left end; higher = more efficient transposition
# Condition set: with VchCAST RNA-guided transposition machinery (E. coli BL21(DE3) host, lacZ target)
Give your answer as a number; write no unit.

Would you please look over these solved cases?
Mutation list: CG T12G G13T C14A A15C
Recorded measurement: -0.59
--
Mutation list: CG G24A T30A
Recorded measurement: 0.342
--
Mutation list: CG G24C T78A T104A
Recorded measurement: -0.403
--
Mutation list: TA A23G G24T A33T A70C T76A T84A C87A A96C T110A T113A
Recorded measurement: 0.218

Challenge: Given the entry CG C17G C18G , report its measured relative integration efficiency (log2).
Response given: -0.437

Challenge: Given the entry CG A40G , report its measured relative integration efficiency (log2).
Response given: 0.0123
